kon for assorted binders
Target: T1, extracellular domain (ECD) of human epidermal growth factor receptor 2 (HER2) (Homo sapiens, UniProt P04626)
T1 construct: human epidermal growth factor receptor 2 (HER2), extracellular domain; also called HER2/ECD
Assay: SPR; BIAcore T200; HER2/ECD immobilised on a CM5 chip by amine coupling to 1000 RU; IgG flowed in PBST (0.05% Tween 20) at 30 uL/min; regeneration 10 mM glycine pH 1.5; global fit to a 1:1 binding model
Conditions: both partners purified
Measured attribute: kon (M⁻¹ s⁻¹)

Binder	Measured attribute	Value unit	Measured result
GH2-61 IgG (antibody, V domains shown, source: HEK293-F, transient transfection, purified (Protein A, Superdex 200)) VH: EVQLVESGGGLVQPGGSLRLSCAASGFTINNWGIHWVRQAPGKGLEWVAGIWPYGGYTYYADSVKGRFTISADTSKNTAYLQMNSLRAEDTAVYYCARFYNHHGGVMDYWGQGTLVTVSS VL: DIQMTQSPSSLSASVGDRVTITCRASQDVGSNVAWYQQKPGKAPKLLISWSTSLYSGVPSRFSGSGSGTDFTLTISSLQPEDFATYYCQQYGGWPITFGQGTKVEIK	kon	M⁻¹ s⁻¹	387000
GH2-13 IgG (antibody, V domains shown, source: HEK293-F, transient transfection, purified (Protein A, Superdex 200)) VH: EVQLVESGGGLVQPGGSLRLSCAASGFTISDGGIHWVRQAPGKGLEWVAGIWPYWGYTSYADSVKGRFTISADTSKNTAYLQMNSLRAEDTAVYYCARFDNNWVGNMDYWGQGTLVTVSS VL: DIQMTQSPSSLSASVGDRVTITCRASQDVYFGVAWYQQKPGKAPKLLISGTTSLYSGVPSRFSGSGSGTDFTLTISSLQPEDFATYYCQQYGSYPITFGQGTKVEIK	kon	M⁻¹ s⁻¹	3.1e+06
GH2-72 IgG (antibody, V domains shown, source: HEK293-F, transient transfection, purified (Protein A, Superdex 200)) VH: EVQLVESGGGLVQPGGSLRLSCAASGFTISNGGIHWVRQAPGKGLEWVAYIWPSGGYTFYADSVKGRFTISADTSKNTAYLQMNSLRAEDTAVYYCARFFNNDWIGMDYWGQGTLVTVSS VL: DIQMTQSPSSLSASVGDRVTITCRASQDVGYFVAWYQQKPGKAPKLLISGTTWLYSGVPSRFSGSGSGTDFTLTISSLQPEDFATYYCQQYSNWPLTFGQGTKVEIK	kon	M⁻¹ s⁻¹	9.15e+08
GH2-98 IgG (antibody, V domains shown, source: HEK293-F, transient transfection, purified (Protein A, Superdex 200)) VH: EVQLVESGGGLVQPGGSLRLSCAASGFTINNYGIHWVRQAPGKGLEWVAGIGPSWGFTYYADSVKGRFTISADTSKNTAYLQMNSLRAEDTAVYYCARFGFYNDGFMDYWGQGTLVTVSS VL: DIQMTQSPSSLSASVGDRVTITCRASQDVGSGVAWYQQKPGKAPKLLIYFSASLYSGVPSRFSGSGSGTDFTLTISSLQPEDFATYYCQQYYNWPLTFGQGTKVEIK	kon	M⁻¹ s⁻¹	254000
GH2-18 IgG (antibody, V domains shown, source: HEK293-F, transient transfection, purified (Protein A, Superdex 200)) VH: EVQLVESGGGLVQPGGSLRLSCAASGFTISNWGIHWVRQAPGKGLEWVAGIWPYGGYTFYADSVKGRFTISADTSKNTAYLQMNSLRAEDTAVYYCARFNYLNLGGMDYWGQGTLVTVSS VL: DIQMTQSPSSLSASVGDRVTITCRASQDVNSNVAWYQQKPGKAPKLLIYWTTGLYSGVPSRFSGSGSGTDFTLTISSLQPEDFATYYCQQYLSGPITFGQGTKVEIK	kon	M⁻¹ s⁻¹	156000
